# Tested on: KM12 colon
# EXPERIMENTAL PROTOCOL: NCI-60 one-dose screen, 48 h (100 = growth as untreated, 0 = no growth, -100 = all killed)
# ASSAY CONTEXT: 10 µM unless noted
The panel holds about 83,000 compounds, 20% with a hit somewhere; the sample as a whole holds those more often.
Note to self: values exactly at 50% are criterion met. So growth at or above 50% is criterion met, below is criterion not met.

QUERY SMILES	LABEL VALUE
COC(=O)c1cc(Nc2ccc(O)c3c2C(=O)c2c([N+](=O)[O-])ccc(O)c2C3=O)cc(C(=O)OC)c1	criterion met
COc1cc(-c2nc(/C=C3/C(=O)Nc4ccccc43)c3ccccn23)cc(OC)c1OC	criterion not met
N#Cc1c2cccnc2c2nnc3cc(Cl)c(Cl)cc3n12	criterion not met
CC(=O)Nc1nc(C)c(C(=O)N/N=C/N2CCOCC2)s1	criterion met
C/C(=N\Nc1cccc(Cl)n1)c1ccccn1	criterion not met
S=C(N/N=C/c1cc(Cl)cc(Cl)c1)NC12CC3CC(CC(C3)C1)C2	criterion met
Cc1ccc(S(=O)(=O)Nc2cccc(Cn3c(=O)[nH]c4ccc(Oc5ncccn5)cc4c3=O)c2)cc1	criterion not met
CC1=C(C)C(=O)C(C(C)C2=C(C)C(=O)C(C)=C(C)C2=O)=C(C)C1=O	criterion met
COc1ccc(Cn2cc3c(c2-c2ccc(O)cc2)CCc2cnoc2-3)cc1	criterion not met
O=C(Nc1ccc(Cl)c(Cl)c1)O/N=C\c1c(Cl)ccc([N+](=O)[O-])c1Cl	criterion not met
Br/C(=N\Nc1nn[nH]n1)c1ccccc1	criterion met
C=CCNC(=S)NNc1ccc([N+](=O)[O-])cn1	criterion met
CC(=O)Nc1nc(C)c(C(=O)N/N=C/c2cccs2)s1	criterion met
COc1ccc2cnc(N)c(C#Cc3cc(C(=O)Nc4ccc(CN5CCN(C)CC5)c(C(F)(F)F)c4)cnc3C)c2c1	criterion not met

* * *

# Tested on: 786-0 renal
# EXPERIMENTAL PROTOCOL: NCI-60 one-dose screen, 48 h (100 = growth as untreated, 0 = no growth, -100 = all killed)
# ASSAY CONTEXT: 10 µM unless noted
# Protocol: Cells are grown in 96 well plates and exposed to the test compound for 48 hours. Compounds are tested at a single concentration, which is 10^-5 M for most compounds. The reported endpoint is percent growth (GI% or GIPRCNT), where numbers from 0 - 100% represent growth inhibition, and numbers from -100% - 0 represent cell death. For example, a value of 40 represents 60% growth inhibition. A value of 0 means no net growth occurred over the course of the experiment. […]
About 83,000 compounds went through this panel and 20% of them were active in at least one assay; those are over-represented in the sample as a whole.
Measured growth values are reported for all entries that follow.

COMPOUND	UNIT TEXT	growth
Cc1sc(NC(=O)c2ccc(C(C)(C)C)cc2)c(C(=O)O)c1C	%	73.8
COC(=O)c1ccc2[nH]c(O)c(C(=Nc3ccc(N(C)C(=O)CN4CCN(C)CC4)cc3)c3ccc(N)cc3)c2c1	%	63.9
C=CCNC(=S)NNc1ccc([N+](=O)[O-])cn1	%	105
COc1ccc(-c2nc(SCC(C)C)nc(Nc3ccc(C)cc3)c2C#N)cc1	%	24.4
O=C(/C=C/c1c[nH]c2ccccc12)c1cc2ccccc2o1	%	86.6
O=C(Nc1cccc2[nH]c(C(F)(F)F)nc12)c1ccc(F)cc1	%	91.9
COc1cc(OC)c(/C=C/c2ccc3ccccc3[n+]2C)c(OC)c1	%	18.5
CC1=NN(c2cccc(Cl)c2)C(=O)/C1=C\c1cn(-c2nc(N3CCOCC3)nc(N3CCOCC3)n2)c2ccccc12	%	102
CC(C)(C)c1ccc(OCCOC(=O)CBr)cc1	%	103
O=S(=O)(O)CCI	%	106
C/C=C/C/C=C/[C@H](C)C[C@H](O)[C@@H]1C[C@@H]2O[C@H]2/C=C/[C@H](O)[C@@H](O)/C=C/C[C@H](C)CC(=O)O1	%	83.3
CCCCCCCCCCCCCCCCCC(=O)Nc1ccc(O)cc1	%	79
CC(C)(C)C(=O)OCOP(=O)(OCOC(=O)C(C)(C)C)C1CC(O)N(O)C1=O (stereo not given)	%	14.5
CCN(CCO)CCNc1ccc(C)c2sc3cc(OC)ccc3c(=O)c12	%	66.6
CC(C)OC(=O)Nn1cnc2ccccc21	%	96.7
COC(=O)c1ccc2[nH]c(O)c(C(=Nc3ccc(N(C)C(=O)CN4CCN(C)CC4)cc3)c3cccc(OC)c3)c2c1	%	10.4
O=C(CCl)c1ccc2c(c1)CCCC2	%	90.6
CCCCCCNC(=O)Oc1ccc(/C(=C(/C)Cc2ccc(OC)cc2)c2ccc(OCCN3CCCCC3)cc2)cc1	%	78.5
C/C(=C\c1ccc2ccccc2c1)[N+](=O)[O-]	%	-62.9
CCCCN(CCCC)CCCNc1c2c(nc3ccc(Cl)cc13)CCCC2	%	-69.6
COc1ccc(C(=O)NCCNc2nccc(-c3c(-c4ccc(F)cc4)nc4sccn34)n2)cc1	%	48.9
O=c1c2c(c3ccccc3n1-c1ccccc1)NC(=S)NC2c1ccc(Cl)cc1 (stereo not given)	%	18.6
COC(=O)c1ccc2[nH]c(O)c(C(=Nc3ccc(N(C)C(=O)CN4CCN(C)CC4)cc3)c3ccc(OC)cc3)c2c1	%	21.7
COC(=O)/C=C1/CCCCC1(C)C(=O)OC (stereo not given)	%	96.4
C#CCCCCCCC[C@@H]1OC(=O)[C@H]([C@@H](C)CC)NC(=O)[C@H]([C@@H](C)CC)NC(=O)CC(=O)[C@@H]1C	%	101

* * *

# System: NCI/ADR-RES ovarian
# EXPERIMENTAL PROTOCOL: NCI-60 one-dose screen, 48 h
# ASSAY CONTEXT: 10 µM unless noted
Compounds without any hit were thinned out: in the full panel of roughly 83,000, 20% have a hit. Active and inactive are the calls of the source. How the source made its calls: active means growth percent below 10; inactive means the rest.
Outcome codes: yes (1) (active), no (0) (inactive)

MOLECULE	MEASURED ON	LABEL VALUE
N#Cc1ccc(NC2c3ccccc3CC2O)cc1 (configuration not stated)	NCI/ADR-RES ovarian	no (0)
N#CCc1ncc(-c2ccc(C(F)(F)F)cc2)c(NC2CCCCCC2)n1	NCI/ADR-RES ovarian	no (0)
COc1cccc2c1nc1cccc(OC)c1[n+]2[O-]	NCI/ADR-RES ovarian	no (0)
O=C1c2cc([N+](=O)[O-])ccc2-c2cc(Cl)c(NC(=O)C(F)(F)F)cc21	NCI/ADR-RES ovarian	no (0)
COc1ccc2c(c1)cn1c3ccc(O)cc3[nH]c(=O)c21	NCI/ADR-RES ovarian	yes (1)
O=C1/C(=C/c2ccc(Cl)cc2)CCC/C1=C\c1ccc(Cl)cc1	NCI/ADR-RES ovarian	no (0)
CC(=O)OC1/C=C\CC/C=C\C1 (configuration not stated)	NCI/ADR-RES ovarian	no (0)
CCN(CC)CCCNc1c2ccc(Cl)cc2nc2ccc(OC)cc12	NCI/ADR-RES ovarian	yes (1)
O=C(Nc1ccc(-n2cc(-c3ccncc3)c(-c3ccc(Cl)c(O)c3)n2)cc1)Nc1cc(C(F)(F)F)cc(C(F)(F)F)c1	NCI/ADR-RES ovarian	no (0)
COC1NC(Cl)=C(C#N)C(C#N)(C#N)C1(C)C (configuration not stated)	NCI/ADR-RES ovarian	no (0)
CC([C@H]1CCC2C3CCC4C[C@@H](N)CC[C@]4(C)C3CC[C@@]21C)N(C)C (some centres not stated)	NCI/ADR-RES ovarian	no (0)
CC(=O)/C(=C/c1ccc(-c2ccccc2)cc1)C(=O)c1ccccc1	NCI/ADR-RES ovarian	no (0)

* * *

# System: A498 renal
# EXPERIMENTAL PROTOCOL: NCI-60 one-dose screen, 48 h
# ASSAY CONTEXT: 10 µM unless noted
This is part of a sample that, as a whole, favours compounds with a hit. Of some 83,000 tested, about 20% had one in any assay. Activity calls are given as the source filed them. How the source made its calls: active means growth percent below 10; inactive means the rest.
Outcome codes: 1 (yes) = active, 0 (no) = inactive

MOLECULE	MEASURED ON	LABEL VALUE
O=C(NCCNCCO)c1cc([N+](=O)[O-])cc([N+](=O)[O-])c1O	A498 renal	0 (no)
C#CCCCCCCC[C@@H]1OC(=O)[C@H]([C@@H](C)CC)NC(=O)[C@@H]([C@@H](C)CC)NC(=O)CC(=O)[C@@H]1C	A498 renal	0 (no)
COc1cccc(NC(=O)NCCNc2nccc(-c3c(-c4ccc(F)cc4)nc4sccn34)n2)c1	A498 renal	0 (no)
O=C(Nc1cccc(Cn2c(=O)[nH]c3ccc(Oc4ncccn4)cc3c2=O)c1)c1ccc(Cl)cc1	A498 renal	0 (no)
COc1ccc2c(c1)/C(=C/c1c(-c3cc(OC)c(OC)c(OC)c3)nc3sccn13)C(=O)N2	A498 renal	0 (no)
O=C(O)CS(=O)c1ccc(Cl)cc1 (stereo not given)	A498 renal	0 (no)
CCOC(=O)C1=C(C(F)(F)F)NC(=O)NC1CN1C(=O)c2ccccc2C1=O (stereo not given)	A498 renal	0 (no)
O=C1OC(c2ccc(-c3ccccc3)cc2)=C/C1=C/c1c2ccccc2cc2ccccc12	A498 renal	0 (no)
COc1cc(NC(C)CCCN)c2nccc(C)c2c1OC (stereo not given)	A498 renal	0 (no)
Nc1nc2c(c3cnccc13)C(c1cccc(Br)c1)Cc1cnccc1-2 (stereo not given)	A498 renal	1 (yes)
N#Cc1ccc(NC2c3ccccc3CC2O)cc1 (stereo not given)	A498 renal	0 (no)
CCOC(=O)CNS(=O)(=O)CC(=O)c1ccccc1	A498 renal	0 (no)
CC1(C)N=C(N)N=C(N)N1c1cccc(CCCCOc2ccccc2)c1	A498 renal	0 (no)
CC1(C)CC(=O)C2=C(C1)Oc1nc(N)c(C#N)c(N)c1C2c1ccc(F)cc1 (stereo not given)	A498 renal	0 (no)
CCCCCCCCCCCCCCCCNC(=S)N/N=C/c1ccc(O)cc1O	A498 renal	0 (no)
COC(=O)c1ccc2[nH]c(O)c(C(=Nc3ccc(N(C)C(=O)CN4CCN(C)CC4)cc3)c3ccc([N+](=O)[O-])cc3)c2c1	A498 renal	0 (no)
COC(=O)[C@@H]1[C@H](O)[C@H](C)[C@H](O)[C@H](C)/C=C\C=C(C)C(=O)Nc2c(C)c(OC(C)=O)c3c(c2O)C(=O)C(C)=C2OCOC(=C23)C(C)=C[C@@](C)(O)[C@H](O)[C@@H](C)[C@H]1OC(C)=O	A498 renal	0 (no)
CC[n+]1c(C)ccc2cc(C)ccc21	A498 renal	0 (no)
CCC(C)(CC)c1ccc(O)c(C)c1	A498 renal	0 (no)
COc1cc(-c2nn(-c3ccc(NC(=O)c4ccc(Cl)c(Cl)c4)cc3)cc2-c2ccncc2)ccc1Cl	A498 renal	0 (no)
COC(=O)[C@H](Cc1cn(C)cn1)NC(=O)[C@H](CC(=O)OCc1ccccc1)NC(=O)Nc1cc(C(F)(F)F)cc(C(F)(F)F)c1	A498 renal	1 (yes)
CCOc1ccc(Br)cc1/C=C(\C#N)c1ccc([N+](=O)[O-])cc1	A498 renal	0 (no)
C[C@@H](c1ccc2c(c1)[nH]c1ccc(Cl)cc12)c1nc2ccccc2[nH]1	A498 renal	0 (no)
C[C@H]1C[C@@H](n2cnc3c(N)nccc32)[C@H](O)[C@@H]1O	A498 renal	0 (no)
COc1cc(-c2nn(-c3ccc(NC(=O)Nc4cc(C(F)(F)F)cc(C(F)(F)F)c4)cc3)cc2-c2ccncc2)ccc1Cl	A498 renal	1 (yes)
NCCCOc1cc(Cl)ccc1NC(=O)c1cc2ccccc2cc1OCCCN	A498 renal	1 (yes)
COc1ccc(-n2nnnc2-c2cn[nH]c2C(F)(F)F)cc1	A498 renal	0 (no)
C=C(C)C(C(=O)OCC)(C(=O)OCC)C(C)C	A498 renal	0 (no)
O=C(/C=C1\C(=O)N(Cc2ccccc2)c2ccccc21)c1ccc(OCCN2CCCCC2)cc1	A498 renal	0 (no)
COc1cc(-c2nn(-c3ccc(NC(=O)c4ccc(Cl)c(C(F)(F)F)c4)cc3)cc2-c2ccncc2)ccc1Cl	A498 renal	0 (no)
COc1ccc(Cn2cc3c(c2-c2ccc(OC)cc2)CCc2cnoc2-3)cc1	A498 renal	1 (yes)
O=c1c2c(c3ccccc3n1-c1ccccc1)NC(=S)NC2c1ccc(Cl)cc1 (stereo not given)	A498 renal	0 (no)
COc1ccc(Nc2c3ccccc3nc3ccccc23)cc1	A498 renal	0 (no)
NC(CSC(c1ccccc1)(c1ccccc1)c1ccccc1)C(=O)NCC(=O)O (stereo not given)	A498 renal	0 (no)
CC(=O)NNC(=O)c1sc(NC(C)=O)nc1C	A498 renal	0 (no)
